Listed compounds paired with reported pIC50
# System: parent untransformed BaF3 cells
# measurement-notes: Tritiated thymidine uptake cell proliferation assay, parental BaF3 (control)
# Type: cell-based
# cond: Mus musculus, 3[H]-thymidine uptake, 72 h, medium with IL-3, read-out: BaF parental IC50
pIC50: −log10 of the molar value.

INSERT INTO measurements (compound, recorded_measurement) VALUES
  ('COc1ccc(-c2ccc3[nH]c4ncccc4c3c2)cc1', '< 4.60'),
  ('Clc1cnc2[nH]c3ccc(Br)cc3c2c1 [R252, 6-bromo-3-chloro-9H-pyrido[2,3-b]indole]', '< 4.70');

As a next step, examine the compound that follows.
### Prompt Under parent untransformed BaF3 cells, report pIC50 for c1coc(-c2cnc3[nH]c4ccccc4c3c2)c1 [R325, 3-(furan-2-yl)-9H-pyrido[2,3-b]indole]
### Response < 4.00

====

Listed molecules paired with reported IC50
# Tested on: NPM/ALK positive SUDHL-1 cells
# measurement-notes: Tritiated thymidine uptake cell proliferation assay, SUDHL-1
# Type: cell-based
# cond: 3[H]-thymidine uptake, 72 h

Worked examples follow.
INSERT INTO measurements (smiles_code, recorded_measurement) VALUES
  ('O=[N+]([O-])c1ccccc1Nc1ccnc2[nH]c3ccccc3c12', '> 100 µM'),
  ('C(=C\c1ccc2c(n1)[nH]c1ccccc12)/c1ccccc1', '> 100 µM'),
  ('C(=C\c1cnc2[nH]c3ccccc3c2c1)/c1ccccc1', '> 100 µM'),
  ('O=C(CSc1nc2ccccc2s1)c1ccc2[nH]c3ncc(Cl)cc3c2c1', '> 25 µM'),
  ('O=C(CSc1ccccc1)c1ccc2[nH]c3ncc(Cl)cc3c2c1', '> 25 µM');

As a next step, examine the molecule that follows.
### Prompt For the molecule O=C(NCCc1ccc2[nH]c3ncc(Cl)cc3c2c1)c1ccccc1 , give its reported IC50.
### Response > 25 µM

====

# Tested on: parent untransformed BaF3 cells
# measurement-notes: Tritiated thymidine uptake cell proliferation assay, parental BaF3 (control)
# Type: cell-based
# cond: Mus musculus, 3[H]-thymidine uptake, 72 h, medium with IL-3, read-out: BaF parental IC50
pIC50: −log10 of the molar value.
Listed compounds paired with reported pIC50

INSERT INTO results (compound, observation_type, recorded_measurement) VALUES
  ('COc1ccc(-c2ccc3[nH]c4nc(-c5ccc(OC)cc5)ccc4c3c2)cc1', 'pIC50', '< 4.00'),
  ('C(#Cc1ccc2c(n1)[nH]c1ccccc12)c1ccccc1 [R342, 2-(phenylethynyl)-9H-pyrido[2,3-b]indole]', 'pIC50', '< 4.00'),
  ('Oc1cnc2[nH]c3ccc(CCc4ccccc4)cc3c2c1', 'pIC50', '< 4.60');

### Prompt For the compound C(=C\c1ccc2c(n1)[nH]c1ccc(-c3ccc(CN4CCOCC4)cc3)cc12)/c1ccccc1 , give its reported pIC50.
### Response < 4.48

====

Listed molecules paired with reported pIC50
# test-system: Recombinant Abl T315I protein (Homo sapiens, UniProt P00519, T315I)
# measurement-notes: Abl T315I mutant kinase inhibitory activity, ELISA-based in vitro kinase assay
# cond: purified Abl T315I, 0.3 mM ATP
Friendly reminder that pIC50 comes from taking -log10 of the concentration in mol/L.

Worked examples follow.
INSERT INTO assay_data (smiles_code, recorded_measurement) VALUES
  ('COc1ccc(CNC(=O)CCC(=O)c2ccc3[nH]c4ncc(Cl)cc4c3c2)cc1', 5.30),
  ('O=C(CSc1ccccc1)c1ccc2[nH]c3nc(Cl)ccc3c2c1', 5.46);

### Prompt For the molecule O=c1[nH]c(-c2ccc3[nH]c4ncccc4c3c2)cs1 , give its reported pIC50.
### Response 4.28

### Prompt For the molecule COc1ccc(-c2ccc3[nH]c4ncccc4c3c2)cc1 , give its reported pIC50.
### Response 5.44

====

Listed compounds paired with reported IC50
# Test system: parent untransformed BaF3 cells
# measurement-notes: Tritiated thymidine uptake cell proliferation assay, parental BaF3 (control)
# Format: cell-based
# cond: Mus musculus, 3[H]-thymidine uptake, 72 h, medium with IL-3, read-out: BaF parental IC50

INSERT INTO assay_data (smiles_code, recorded_measurement) VALUES
  ('COc1ccc(-c2cnc3[nH]c4ccccc4c3c2)cc1', '> 50 µM'),
  ('C(=C\c1ccc2c(n1)[nH]c1ccccc12)/c1ccccc1', '> 100 µM');

As a next step, examine the compound that follows.
### Prompt For the compound C(=C\c1cnc2[nH]c3ccc(-c4ccc(N5CCOCC5)cn4)cc3c2c1)/c1ccccc1 , give its reported IC50.
### Response > 100 µM

====

# test-system: Recombinant ALK kinase (Homo sapiens, UniProt Q9UM73)
# Construct: made in house; host or cells: Sf9 insect cells (baculovirus)
# Sequence (Q9UM73 19-1620): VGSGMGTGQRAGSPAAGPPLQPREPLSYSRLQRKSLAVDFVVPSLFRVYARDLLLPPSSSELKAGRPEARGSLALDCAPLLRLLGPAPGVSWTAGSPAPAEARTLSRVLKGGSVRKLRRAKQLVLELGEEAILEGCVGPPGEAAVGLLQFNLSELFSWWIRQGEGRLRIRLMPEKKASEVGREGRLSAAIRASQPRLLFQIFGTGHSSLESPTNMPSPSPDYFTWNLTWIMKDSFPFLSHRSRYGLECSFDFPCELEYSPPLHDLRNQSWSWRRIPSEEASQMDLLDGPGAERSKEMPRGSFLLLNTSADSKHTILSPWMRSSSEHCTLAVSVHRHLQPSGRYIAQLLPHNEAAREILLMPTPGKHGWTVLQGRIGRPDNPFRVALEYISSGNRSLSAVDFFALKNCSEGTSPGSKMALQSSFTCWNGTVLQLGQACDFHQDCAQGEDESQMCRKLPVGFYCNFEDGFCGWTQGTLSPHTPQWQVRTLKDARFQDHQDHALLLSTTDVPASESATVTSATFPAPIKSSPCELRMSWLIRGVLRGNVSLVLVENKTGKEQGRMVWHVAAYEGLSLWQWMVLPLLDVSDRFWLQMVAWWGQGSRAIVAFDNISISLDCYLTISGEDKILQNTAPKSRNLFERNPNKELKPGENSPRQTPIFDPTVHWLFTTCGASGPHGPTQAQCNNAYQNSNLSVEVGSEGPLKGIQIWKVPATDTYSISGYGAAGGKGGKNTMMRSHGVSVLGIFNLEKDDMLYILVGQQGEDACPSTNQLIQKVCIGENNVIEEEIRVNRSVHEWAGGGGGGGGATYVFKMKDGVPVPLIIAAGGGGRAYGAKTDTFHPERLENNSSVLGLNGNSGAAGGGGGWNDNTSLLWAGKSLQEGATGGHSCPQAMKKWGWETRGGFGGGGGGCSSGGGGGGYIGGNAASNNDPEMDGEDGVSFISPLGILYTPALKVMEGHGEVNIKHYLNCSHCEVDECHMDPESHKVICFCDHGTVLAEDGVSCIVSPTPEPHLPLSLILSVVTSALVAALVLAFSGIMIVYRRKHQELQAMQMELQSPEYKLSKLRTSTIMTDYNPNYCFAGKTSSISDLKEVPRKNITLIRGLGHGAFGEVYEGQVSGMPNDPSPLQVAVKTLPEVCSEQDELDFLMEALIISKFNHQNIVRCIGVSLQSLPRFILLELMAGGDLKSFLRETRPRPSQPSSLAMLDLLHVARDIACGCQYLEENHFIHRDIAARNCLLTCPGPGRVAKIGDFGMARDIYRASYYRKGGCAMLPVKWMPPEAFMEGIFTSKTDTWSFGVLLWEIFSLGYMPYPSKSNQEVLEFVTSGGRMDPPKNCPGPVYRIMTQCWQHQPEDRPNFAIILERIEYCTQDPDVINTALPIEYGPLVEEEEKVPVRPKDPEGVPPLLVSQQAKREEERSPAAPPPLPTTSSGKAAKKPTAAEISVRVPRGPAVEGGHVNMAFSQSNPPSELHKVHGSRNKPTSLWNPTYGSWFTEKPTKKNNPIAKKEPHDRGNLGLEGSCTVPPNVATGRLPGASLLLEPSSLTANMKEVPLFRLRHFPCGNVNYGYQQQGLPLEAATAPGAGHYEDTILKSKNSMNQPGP
# measurement-notes: ALK kinase inhibitory activity, ELISA-based in vitro kinase assay
# Type: biochemical
# cond: purified rALK, 0.3 mM ATP, read-out: ALK IC50
observation-type: pIC50
Friendly reminder that pIC50 comes from taking -log10 of the concentration in mol/L.

INSERT INTO assay_data (smiles_code, observation_type, recorded_measurement) VALUES
  ('O=[N+]([O-])c1ccccc1Nc1ccnc2[nH]c3ccccc3c12', 'pIC50', 4.64),
  ('CN1CCN(CCOc2ccc(-c3ccc4[nH]c5ncc(Cl)cc5c4c3)cc2)CC1', 'pIC50', 5.11),
  ('O=c1[nH]c(-c2ccc3[nH]c4ncccc4c3c2)cs1', 'pIC50', 4.72),
  ('O=[N+]([O-])c1cccc(Nc2ccnc3[nH]c4ccccc4c23)c1', 'pIC50', 4.70),
  ('COc1ccc(-c2cnc3[nH]c4ccccc4c3c2)cc1', 'pIC50', 5.92),
  ('O=[N+]([O-])c1ccccc1Nc1ccc2c(n1)[nH]c1ccccc12', 'pIC50', 5.33);

### Prompt For the compound c1ccc(-c2ccc(-c3ccnc4[nH]c5ccccc5c34)cc2)cc1 , give its reported pIC50.
### Response 4.85

### Prompt For the compound O=[N+]([O-])/C=C/c1ccc2[nH]c3ncccc3c2c1 , give its reported pIC50.
### Response 4.84

### Prompt For the compound CN(C)/C=C/C(=O)c1ccc2[nH]c3ncccc3c2c1 , give its reported pIC50.
### Response 4.26

### Prompt For the compound c1ccc(-c2ccc(-c3cnc4[nH]c5ccccc5c4c3)cc2)cc1 , give its reported pIC50.
### Response 4.92

### Prompt For the compound COc1ccc(-c2ccc3c(n2)[nH]c2ccccc23)cc1 , give its reported pIC50.
### Response 5.68

====

Listed molecules paired with reported IC50
# System: parent untransformed BaF3 cells
# measurement-notes: Tritiated thymidine uptake cell proliferation assay, parental BaF3 (control)
# Format: cell-based
# cond: Mus musculus, 3[H]-thymidine uptake, 72 h, medium with IL-3, read-out: BaF parental IC50

Worked examples follow.
INSERT INTO results (molecule, recorded_measurement) VALUES
  ('O=[N+]([O-])c1cccc(-c2ccnc3[nH]c4ccccc4c23)c1 [R331, 4-(3-nitrophenyl)-9H-pyrido[2,3-b]indole]', '> 100 µM'),
  ('O=[N+]([O-])c1cccc(Nc2ccnc3[nH]c4ccccc4c23)c1', '> 100 µM'),
  ('CC(=O)c1ccc2[nH]c3ncc(Cl)cc3c2c1 [R253, 6-acetyl-3-chloro-9H-pyrido[2,3-b]indole]', '> 20 µM');

### Prompt For the molecule C(=C\c1cnc2[nH]c3ccccc3c2c1)/c1ccccc1 , give its reported IC50.
### Response > 100 µM

====

Listed compounds paired with reported melting point

INSERT INTO results (compound, recorded_measurement) VALUES
  ('O=S(=O)(c1ccccc1)n1c2ccc(/C=C/c3ccccc3)cc2c2c(Cl)ccnc21', '216 to 218 °C'),
  ('COc1ccc(-c2ccnc3[nH]c4ccccc4c23)cc1', '208 to 210 °C');

### Prompt For the compound Clc1ccc2c(n1)[nH]c1ccc(Br)cc12 [compound 9, 6-bromo-2-chloro-9H-pyrido[2,3-b]indole] , give its reported melting point.
### Response > 220 °C

====

# test-system: Recombinant Abl T315I protein (Homo sapiens, UniProt P00519, T315I)
# measurement-notes: Abl T315I mutant kinase inhibitory activity, ELISA-based in vitro kinase assay
# cond: purified Abl T315I, 0.3 mM ATP
observation-type: IC50

Worked examples follow.
INSERT INTO assay_data (compound, recorded_measurement) VALUES
  ('O=C(CSc1ccccc1)c1ccc2[nH]c3ncc(Cl)cc3c2c1 [R275]', '> 100 µM'),
  ('CN(C)CCSCC(=O)c1ccc2[nH]c3ncc(Cl)cc3c2c1 [R284]', '> 100 µM');

### Prompt For the compound Clc1cnc2[nH]c3ccc(-c4ccc(CN5CCOCC5)cc4)cc3c2c1 [R313] , give its reported IC50.
### Response > 10 µM
